- Target entity: T1, recombinant human OX40L (extracellular domain, R&D Systems) (human, UniProt P23510 51-183)
- T1 construct: also called hOX40L; rec. hOX40L
- T1 sequence: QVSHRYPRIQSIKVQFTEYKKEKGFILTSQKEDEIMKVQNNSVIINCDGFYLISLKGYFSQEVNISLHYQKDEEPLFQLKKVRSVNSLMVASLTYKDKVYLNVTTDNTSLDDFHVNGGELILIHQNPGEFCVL
- Test: SPR, after second injection of buffer HBS-EP+
Measured Binding Level sample 2 - sample 1 (RU), listed per entry for reference.
Numeric answer only, unit RU assumed.

>  <Binder>
OX40L18E09 (VHH, monovalent Nanobody from E. coli; not shown: C-terminal c-myc and His6 tag) VHH: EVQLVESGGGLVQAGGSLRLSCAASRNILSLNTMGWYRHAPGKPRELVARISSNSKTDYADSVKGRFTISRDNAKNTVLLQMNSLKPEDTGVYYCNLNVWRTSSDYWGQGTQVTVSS

>  <Units text>
RU

>  <Binding Level sample 2 - sample 1 (RU)>
-16

$$$$

Would you kindly look at the next entry?
Query block: What value of measured Binding Level sample 2 - sample 1 (RU) is listed for OX40L19D08 (VHH, monovalent Nanobody from E. coli; not shown: C-terminal c-myc and His6 tag) VHH: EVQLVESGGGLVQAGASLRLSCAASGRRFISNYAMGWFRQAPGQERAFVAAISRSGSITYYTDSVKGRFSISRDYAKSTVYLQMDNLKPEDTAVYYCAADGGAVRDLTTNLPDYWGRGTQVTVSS ?
Result block: -38
